- assayed.target: serotonin transporter (SERT) (Homo sapiens)
- Sequence (P31645 whole entry, species assumed): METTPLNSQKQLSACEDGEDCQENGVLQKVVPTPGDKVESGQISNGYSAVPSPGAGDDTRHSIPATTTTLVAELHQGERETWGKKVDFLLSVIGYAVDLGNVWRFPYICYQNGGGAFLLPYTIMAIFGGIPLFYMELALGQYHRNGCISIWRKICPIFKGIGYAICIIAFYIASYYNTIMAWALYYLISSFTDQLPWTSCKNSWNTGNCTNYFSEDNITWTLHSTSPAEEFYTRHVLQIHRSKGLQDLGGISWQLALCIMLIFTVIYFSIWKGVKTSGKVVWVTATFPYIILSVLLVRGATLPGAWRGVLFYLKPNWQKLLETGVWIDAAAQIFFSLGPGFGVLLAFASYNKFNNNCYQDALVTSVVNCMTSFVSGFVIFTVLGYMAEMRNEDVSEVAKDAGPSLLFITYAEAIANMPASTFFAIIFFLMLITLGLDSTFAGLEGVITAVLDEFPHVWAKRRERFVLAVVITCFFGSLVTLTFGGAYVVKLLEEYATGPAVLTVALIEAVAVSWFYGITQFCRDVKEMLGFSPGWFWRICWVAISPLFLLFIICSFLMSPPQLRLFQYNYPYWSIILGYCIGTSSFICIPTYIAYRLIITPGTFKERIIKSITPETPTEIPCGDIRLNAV
- assay.protocol: NIMH-PDSP radioligand binding affinity, SERT
- details: read-out: SERT binding, 50% threshold inhibition (MT)
Where a name gives a salt, the structure may show the parent alone.
The compounds listed here are annotated with their inhibition at 10 µM.

Example entries begin here.
Query: // map O=C1c2cc(Cl)c(Cl)cc2CC1CCN1CCN(c2ccccn2)CC1 (stereo not drawn) [Compound 18] to recorded inhibition at 10 µM (system: serotonin transporter (SERT) (Homo sapiens))
Reply: < 50%

Query: Quick check: inhibition at 10 µM on serotonin transporter (SERT) (Homo sapiens), item CC(=O)Nc1ccc(C(=O)CCCN2CCN(c3ccccn3)CC2)cc1 [Compound 3, oxalate] ?
Reply: < 50%

Query: Which measured inhibition at 10 µM belongs to O=C1CCc2cc(OCCCN3CCN(c4ccccn4)CC3)ccc21 [Compound 11] , tested on serotonin transporter (SERT) (Homo sapiens)?
Reply: < 50%

Query: Request: inhibition at 10 µM, test system serotonin transporter (SERT) (Homo sapiens), entry O=C1CCc2cc(C(=O)CCCN3CCN(c4ccccn4)CC3)ccc2N1 [Compound 7]
Reply: < 50%

Query: Please tell me: inhibition at 10 µM of O=C1c2ccc(F)cc2CC1CCN1CCN(c2ccccn2)CC1 (stereo not drawn) [Compound 13] , system serotonin transporter (SERT) (Homo sapiens)?
Reply: < 50%

---
Query: Lab note: need inhibition at 10 µM for Clc1ccc2c(c1)CC(CCN1CCN(c3ccccn3)CC1)C2 (stereo not drawn) [Compound 16] on serotonin transporter (SERT) (Homo sapiens), anyone have it?
Reply: < 50%

Query: Give serotonin transporter (SERT) (Homo sapiens) inhibition at 10 µM for Nc1ccc(CCCCN2CCN(c3ccccn3)CC2)cc1 [Compound 6]
Reply: < 50%

Query: Could you share what inhibition at 10 µM was measured for O=C(CCCN1CCN(c2ccccn2)CC1)c1ccc2c(c1)CCC2 [Compound 12] , tested on serotonin transporter (SERT) (Homo sapiens)?
Reply: < 50%

Query: Report inhibition at 10 µM for O=C1c2ccc(Cl)cc2CC1CCCN1CCN(c2ccccn2)CC1 (stereo not drawn) [drawing 43] tested on serotonin transporter (SERT) (Homo sapiens).
Reply: < 50%

* * *

This listing pairs molecules with measured melting point.
Counter-ions that a name gives are not always drawn.

Query: Please report the recorded melting point for CC(=O)Nc1ccc(C(=O)CCCN2CCN(c3ccccn3)CC2)cc1 (as salt: oxalate) .
Reply: 140 to 142 °C

Query: Please look up its melting point: Clc1ccc2c(c1)CC(CCN1CCN(c3ccccn3)CC1)C2 (stereo not drawn) (as salt: HCl)
Reply: 267 to 270 °C

Query: I have this molecule here, O=C1CCc2cc(C(=O)CCCN3CCN(c4ccccn4)CC3)ccc2N1 , and I need its recorded melting point.
Reply: 192 to 193 °C

Query: Can you share its melting point? I mean this molecule: O=C(CCCN1CCN(c2ccccn2)CC1)c1ccc2c(c1)CCC2
Reply: 74 to 75 °C

Query: What melting point value was documented for this molecule, O=C1CCc2cc(CCCCN3CCN(c4ccccn4)CC3)ccc2N1 ?
Reply: 144 to 145 °C

Query: Name the recorded melting point for O=C1CCc2cc(OCCCN3CCCN(c4ccccn4)CC3)ccc2N1 (as salt: oxalate) .
Reply: 190 to 192 °C

Query: Which melting point is listed for O=C1CCc2cc(OCCCN3CCN(c4ccccn4)CC3)ccc2N1 ?
Reply: 154 to 155 °C

Query: Look up melting point for this molecule: O=C1c2ccc(Cl)cc2CC1CCN1CCN(c2ccccn2)CC1 (stereo not drawn)
Reply: 132 to 135 °C

Query: Dear colleague, I am looking for the recorded melting point of the following molecule: Nc1ccc(C(=O)CCCN2CCN(c3ccccn3)CC2)cc1
Reply: 203 to 204 °C

Query: Using the record for OC1c2ccc(F)cc2CC1CCN1CCN(c2ccccn2)CC1 (stereo not drawn) (as salt: hydroiodid) , report its melting point.
Reply: 174 to 175 °C

Query: # melting point lookup, item O=C1c2ccc(Cl)cc2CC1CCCCN1CCN(c2ccccn2)CC1 (stereo not drawn) (as salt: HCl)
Reply: 233 to 234 °C

Query: If you can, please state the reported melting point value of O=C1CCc2cc(OCCCN3CCN(c4ccccn4)CC3)ccc21 .
Reply: 103 to 104 °C
